target: Cry2 PHR (L348F)-p65AD-NLSx2 fusion construct as released from the TetR (I194T, 1-206)-CIB1 (-NLS)-T2A-Cry2 PHR (L348F)-p65AD-NLSx2 fusion construct; test: cell-based or functional assay
Sequence (Q96524 other isoform, or with tags, fused parts or gaps L348F I194T L348F L348F I194T L348F): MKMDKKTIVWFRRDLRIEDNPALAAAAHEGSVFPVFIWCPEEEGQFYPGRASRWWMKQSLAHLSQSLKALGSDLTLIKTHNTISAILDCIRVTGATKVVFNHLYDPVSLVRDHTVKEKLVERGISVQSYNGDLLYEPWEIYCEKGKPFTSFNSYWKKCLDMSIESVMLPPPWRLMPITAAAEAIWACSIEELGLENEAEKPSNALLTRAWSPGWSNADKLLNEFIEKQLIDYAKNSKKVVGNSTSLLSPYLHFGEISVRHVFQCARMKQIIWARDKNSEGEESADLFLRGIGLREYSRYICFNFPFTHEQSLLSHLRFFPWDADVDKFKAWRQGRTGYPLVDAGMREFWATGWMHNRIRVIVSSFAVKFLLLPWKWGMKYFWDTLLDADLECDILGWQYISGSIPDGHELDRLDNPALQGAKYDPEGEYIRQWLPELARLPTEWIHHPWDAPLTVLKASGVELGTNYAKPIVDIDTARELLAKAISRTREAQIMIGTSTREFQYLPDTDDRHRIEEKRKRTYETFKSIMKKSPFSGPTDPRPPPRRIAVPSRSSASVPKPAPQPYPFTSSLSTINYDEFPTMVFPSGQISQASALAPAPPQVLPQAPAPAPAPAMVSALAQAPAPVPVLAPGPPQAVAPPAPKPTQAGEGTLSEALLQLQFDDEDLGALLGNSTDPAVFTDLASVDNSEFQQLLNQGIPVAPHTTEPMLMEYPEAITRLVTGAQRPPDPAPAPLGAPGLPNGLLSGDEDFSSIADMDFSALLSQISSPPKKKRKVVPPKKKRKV

BINDER	Ub-ELuc luciferase, Light, Dox 0 ng/mL (relative)
rTetR (I194T, V16 mutation, 1-206)-CIB1 (-NLS) from the T2A construct (protein, part only; not given: Leftover T2A residues, part only) chain, part: MARLDKSKIINSALELLNGVGIEGLTTRKLAQKLGVEQPTLYWHVKNKRALLDALPIEMLDRHHTHSCPLEGESWQDFLRNNAKSYRCALLSHRDGAKVHLGTRPTEKQYETLENQLAFLCQQGFSLENALYALSAVGHFTLGCVLEEQEHQVAKEERETPTTDSMPPLLKQAIELFDRQGAEPAFLFGLELITCGLEKQLKCESGSPKKKHMEFNGAIGGDLLLNFPDMSVLERQRAHLKYLNPTFDSPLAGFFADSSMITGGEMDSYLSTAGLNLPMMYGETTVEGDSRLSISPETTLGTGNFKAAKFDTETKDCNEAAKKMTMNRDDLVEEGEEEKSKITEQNNGSTKSIKKMKHKAKKEENNFSNDSSKVTKELEKTDYI	0.3

Just for reference, patent US20210340548A1 is where these values come from.
